Molecular target: T1, human monocarboxylate transporter 1 (MCT1) (human, UniProt P53985 1-500)
T1 construct: Multi-pass transmembrane transporter, endogenous on HEK WT / HEK293T cells and on primary human T and B cells in the assays; also called human MCT1; SLC16A1
T1 sequence: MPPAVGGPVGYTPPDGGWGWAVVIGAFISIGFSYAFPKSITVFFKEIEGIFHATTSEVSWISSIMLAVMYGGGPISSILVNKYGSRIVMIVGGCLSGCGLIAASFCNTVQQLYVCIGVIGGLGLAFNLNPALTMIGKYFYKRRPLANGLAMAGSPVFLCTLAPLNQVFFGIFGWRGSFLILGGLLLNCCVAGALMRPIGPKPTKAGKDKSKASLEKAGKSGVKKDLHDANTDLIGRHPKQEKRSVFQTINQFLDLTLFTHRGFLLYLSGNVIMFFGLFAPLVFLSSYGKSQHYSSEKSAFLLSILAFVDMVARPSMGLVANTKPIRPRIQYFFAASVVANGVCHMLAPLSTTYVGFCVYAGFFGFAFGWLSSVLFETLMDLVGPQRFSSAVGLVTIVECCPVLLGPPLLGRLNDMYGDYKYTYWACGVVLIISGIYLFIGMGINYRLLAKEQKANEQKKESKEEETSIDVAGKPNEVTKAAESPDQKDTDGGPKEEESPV
Assay: competition MSD binding assay, antibody titrated with HEK WT cells expressing MCT1, apparent KD, screening at 25 C
observable: Kd (nM)
A number alone suffices; assume nM.

Some solved entries appear below for comparison.
{"columns": ["binder", "Kd, nM"],
 "data": [
  ["anti-human MCT1 antibody Ab18 (antibody, human IgG1, kappa, V domains shown, IgG1EN backbone) VH: QVQLVQSGAEVKKPGASVKVSCTVSGRSLTNYHLGWVRQAPGQGLEWMGFIRSSGNTEYNSEFKSRVTMTRDTSTSTVYMELSSLRSEDTAVYYCARNRWYHGTYYSPGYYVMDAWGQGTLVTVSS VL: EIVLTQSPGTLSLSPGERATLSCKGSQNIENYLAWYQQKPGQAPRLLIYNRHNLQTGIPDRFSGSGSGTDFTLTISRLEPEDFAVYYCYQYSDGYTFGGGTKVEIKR", 5.14],
  ["anti-human MCT1 antibody Ab20 (antibody, human IgG1, kappa, V domains shown, IgG1EN backbone) VH: QVQLVQSGAEVKKPGASVKVSCTVSGRSLTNYHLQWVRQAPGQGLEWMGFIRSSGNTEYNSEFKSRVTMTRDTSTSTVYMELSSLRSEDTAVYYCARNLWYHGTYYSPGYYVMDAWGQGTLVTVSS VL: EIVLTQSPGTLSLSPGERATLSCKGSQNINNYLAWYQQKPGQAPRLLIYNRHNLQTGIPDRFSGSGSGTDFTLTISRLEPEDFAVYYCYQYSDGYTFGGGTKVEIKR", 0.64]
]}

--- query ---
(Q) GET /values?readout=Kd&item= anti-human MCT1 antibody Ab21 (antibody, human IgG1, kappa, V domains shown, IgG1EN backbone) VH: QVQLVQSGAEVKKPGASVKVSCTVSGRSLTNYHLQWVRQAPGQGLEWMGFIRSSGNTEYNSEFKSRVTMTRDTSTSTVYMELSSLRSEDTAVYYCARNRWYHGTYYSPGYYVMDPWGQGTLVTVSS VL: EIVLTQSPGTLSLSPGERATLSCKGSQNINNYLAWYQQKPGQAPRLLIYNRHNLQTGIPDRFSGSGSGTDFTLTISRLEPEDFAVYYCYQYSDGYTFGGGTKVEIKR
(A) 0.85

src = patent US20230111363A1
